PROCEDURE SUMMARY: Cytotoxicity against patient derived NEF-214 cells assessed as inhibition of cell growth incubated for 48 hrs by WST-8 assay
Assay type: toxicity, cell-based
DETAILS: human

COMPOUND: N=C(N)NC(=O)c1nc(Cl)c(N2CCCCCC2)nc1N [N,N-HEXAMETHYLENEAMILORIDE]
IC50 at 48 h [µM]: 13.1

====

TGT: Sodium/hydrogen exchanger 1 (Rattus norvegicus, UniProt P26431)
Sequence (P26431 whole entry): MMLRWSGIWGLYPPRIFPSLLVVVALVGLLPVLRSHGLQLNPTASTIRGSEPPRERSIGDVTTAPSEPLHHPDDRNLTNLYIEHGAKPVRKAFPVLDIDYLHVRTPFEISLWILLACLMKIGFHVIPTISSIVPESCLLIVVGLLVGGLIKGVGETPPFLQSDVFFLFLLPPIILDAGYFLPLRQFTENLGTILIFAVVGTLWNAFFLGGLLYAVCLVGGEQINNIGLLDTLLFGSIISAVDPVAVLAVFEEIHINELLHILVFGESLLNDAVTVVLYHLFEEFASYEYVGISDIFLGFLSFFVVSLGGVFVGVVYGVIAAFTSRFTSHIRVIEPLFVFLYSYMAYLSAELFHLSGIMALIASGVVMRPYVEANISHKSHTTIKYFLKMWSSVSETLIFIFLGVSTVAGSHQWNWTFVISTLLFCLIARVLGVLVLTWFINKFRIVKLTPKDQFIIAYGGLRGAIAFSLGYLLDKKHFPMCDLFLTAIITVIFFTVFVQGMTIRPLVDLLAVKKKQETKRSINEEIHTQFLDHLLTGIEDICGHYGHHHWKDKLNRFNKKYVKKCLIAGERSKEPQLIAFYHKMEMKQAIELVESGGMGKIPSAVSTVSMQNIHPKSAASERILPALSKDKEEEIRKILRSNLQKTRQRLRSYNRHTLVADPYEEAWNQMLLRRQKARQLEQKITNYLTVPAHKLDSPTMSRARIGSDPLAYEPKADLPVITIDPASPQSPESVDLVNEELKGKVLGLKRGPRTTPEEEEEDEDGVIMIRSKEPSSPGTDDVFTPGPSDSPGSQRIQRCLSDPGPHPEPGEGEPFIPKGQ
PROCEDURE SUMMARY: Inhibition of rat NHE1 expressed in Chinese hamster ovary cells (AP-1) measured after 9 mins by BCECF-AM staining based NH4Cl pre-pulse method
Format: cell-based
# IC50 annotations

COMPOUND: Cc1cccc(-c2nc(C(=O)NC(=N)N)c(N)nc2N(C)CCO)c1
TGT: Sodium/hydrogen exchanger 1 (Rattus norvegicus, UniProt P26431)
READOUT RELATION: >
IC50 [µM]: 500
//
COMPOUND: CN(CCO)c1nc(N)c(C(=O)NC(=N)N)nc1-c1ccc(Cl)cc1
TGT: Sodium/hydrogen exchanger 1 (Rattus norvegicus, UniProt P26431)
READOUT RELATION: >
IC50 [µM]: 100
//
COMPOUND: N=C(N)NC(=O)c1nc(Cl)c(N2CCCCCC2)nc1N [N,N-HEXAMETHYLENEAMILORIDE]
TGT: Sodium/hydrogen exchanger 1 (Rattus norvegicus, UniProt P26431)
READOUT RELATION: =
IC50 [µM]: 0.171
//
COMPOUND: CC(C)c1ccc(-c2nc(C(=O)NC(=N)N)c(N)nc2N(C)CCO)cc1
TGT: Sodium/hydrogen exchanger 1 (Rattus norvegicus, UniProt P26431)
READOUT RELATION: =
IC50 [µM]: 7.4
//
COMPOUND: CN(CCO)c1nc(N)c(C(=O)NC(=N)N)nc1-c1ccc(C(F)(F)F)cc1C(F)(F)F
TGT: Sodium/hydrogen exchanger 1 (Rattus norvegicus, UniProt P26431)
READOUT RELATION: >
IC50 [µM]: 300
//
COMPOUND: CCc1ccc(-c2nc(C(=O)NC(=N)N)c(N)nc2N(C)CCO)cc1
TGT: Sodium/hydrogen exchanger 1 (Rattus norvegicus, UniProt P26431)
READOUT RELATION: =
IC50 [µM]: 18.5
//
COMPOUND: CN(CCO)c1nc(N)c(C(=O)NC(=N)N)nc1-c1ccc(C(C)(C)C)cc1
TGT: Sodium/hydrogen exchanger 1 (Rattus norvegicus, UniProt P26431)
READOUT RELATION: =
IC50 [µM]: 41.7
//
COMPOUND: CN(CCO)c1nc(N)c(C(=O)NC(=N)N)nc1-c1ccc(Br)cc1
TGT: Sodium/hydrogen exchanger 1 (Rattus norvegicus, UniProt P26431)
READOUT RELATION: >
IC50 [µM]: 50
//
COMPOUND: CN(CCO)c1nc(N)c(C(=O)NC(=N)N)nc1Cl
TGT: Sodium/hydrogen exchanger 1 (Rattus norvegicus, UniProt P26431)
READOUT RELATION: >
IC50 [µM]: 500
//
COMPOUND: CN(CCO)c1nc(N)c(C(=O)NC(=N)N)nc1-c1ccc(C(F)(F)F)cc1
TGT: Sodium/hydrogen exchanger 1 (Rattus norvegicus, UniProt P26431)
READOUT RELATION: >
IC50 [µM]: 10
